The origin of these recorded values is patent US8247352B2.

biological target: ACC Oxidase (Solanum lycopersicum); construct: made in house; host or cells: Escherichia coli BL21 (DE3)pLysS; assay: Stoichiometry of O2 consumed to product formed (CO2 or ethylene), extent of uncoupling; assay type: biochemical, Lycopersicon esculentum
Sequence (P05116 whole entry): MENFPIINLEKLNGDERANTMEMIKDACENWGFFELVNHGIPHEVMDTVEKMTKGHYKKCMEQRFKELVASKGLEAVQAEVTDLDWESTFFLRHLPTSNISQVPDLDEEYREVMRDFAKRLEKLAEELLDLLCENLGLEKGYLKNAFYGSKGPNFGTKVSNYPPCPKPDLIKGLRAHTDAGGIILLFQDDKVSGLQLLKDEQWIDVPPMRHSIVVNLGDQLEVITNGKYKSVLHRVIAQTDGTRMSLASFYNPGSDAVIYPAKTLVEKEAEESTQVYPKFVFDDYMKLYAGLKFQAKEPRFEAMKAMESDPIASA
MEASURED ENDPOINT: Products detected

1. CNC1(C(=O)O)CC1: Ethylene
2. NCC(=O)O: CO2
3. COC(=O)C1(N)CC1: Ethylene
4. NC(=O)C1(N)CC1: Ethylene
